Tested on: Saccharomyces cerevisiae;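 further: PSI is a weighted mean of sequencing reads over stability bins, variants kept only with over 10 reads, mCherry proximal and sfGFP distal, peptide attached via GGGS linker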
Test: protein stability index of tFT-peptide fusion (C-terminal peptide) (PSI (0-1 scale)); higher = more stable (slower turnover)
Conditions: genetic background: wild type; temperature: 30 C
Classification field: yes = protein stability index at or over 0.7; no = protein stability index under 0.7.

Problem: Identify whether the reported protein stability index of the following sequence is 0.7 or greater: HLYCYNILLVSG
Solution: no

Problem: Is protein stability index at least 0.7? Consider FPVWVKGLLGMG
Solution: no

Problem: Assess whether reported protein stability index for APSCPKSLTFLD sits at 0.7 or higher.
Solution: yes

Problem: hey, is protein stability index for this one >= 0.7? PCDCAHPVLRPM
Solution: no

Problem: # bool: protein stability index of SCGVYVVFVLVE >= 0.7
Solution: no

Problem: Given the entry KGKKTKQKRAKK , answer whether its protein stability index meets or surpasses 0.7.
Solution: no

Problem: Is protein stability index at least 0.7? Consider DISWVFVLLIFF
Solution: no

Problem: Check if protein stability index >= 0.7 (inclusive). Item: WTGGEEGTAVQA
Solution: no

Problem: Determine whether measured protein stability index meets or exceeds 0.7 for APPVILPPSGPP
Solution: no

Problem: Does the sequence GHLRPFPPPLLP have recorded protein stability index that is 0.7 or more?
Solution: yes

Problem: hey, is protein stability index for this one >= 0.7? PPWRPVALLLLA
Solution: no

Problem: Could you please find out whether FSFVTFYSICDV has protein stability index that meets 0.7 or exceeds it?
Solution: no
